biological target: SARS-CoV-2 Wuhan-Hu-1 RBD for SPR binding assays (SARS-CoV-2 Wuhan-Hu-1 (NC_045512.2), UniProt P0DTC2); assay: SPR; settings: both partners purified
ASSAY_ENDPOINT: Kd (nM)

[[record]]
binder = "REGN10987 IgG1 (antibody, V domains shown, IgG1) VH: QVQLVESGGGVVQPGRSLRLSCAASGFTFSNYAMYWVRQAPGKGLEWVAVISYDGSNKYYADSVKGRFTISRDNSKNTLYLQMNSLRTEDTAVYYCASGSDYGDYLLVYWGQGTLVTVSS VL: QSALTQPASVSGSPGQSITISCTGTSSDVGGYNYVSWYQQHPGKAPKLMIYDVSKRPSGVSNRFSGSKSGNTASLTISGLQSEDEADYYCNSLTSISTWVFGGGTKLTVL"
units = "nM"
cmp = "="
numeric_result = 12.4

[[record]]
binder = "ADI-58125 IgG1 (antibody, V domains shown, IgG1) VH: EVQLVESGGGLVKPGGSLRLSCAASGFTFSSYYMNWVRQAPGKGLEWVSSISEDGYSTYYPDSLKGRFTISRDSAKNSLYLQMNSLRADDTAVYYCARDFSGHTAWAGTGFEYWGQGTLVTVSS VL: QSVLTQPPSVSGAPGQRITISCTGSSSNIGAGYDVHWYQQLPGTAPKLLIYGSSSRNSGVPDRFSGSKSGTSASLAITGLQAEDEADYYCQSYDSSLSVLYTFGTGTKVTVL"
units = "nM"
cmp = "<"
numeric_result = 0.01


Value source: paper PMC9427005
